Method description: growth inhibitors of H69AR lung tumor, primary screen, human, duplicate replicates (AID 580);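 further: 100% = mean luminescence of untreated wells and 0% = no signal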
Condition label: H69AR lung tumor cells viability, ATP luminescence, 72 h; at 10 µM; active compounds read low
Peptide text beside a SMILES is read from it. * marks the point of attachment. Boc = CC(C)(C)OC(=O)*
Measurement name: viability (%)
Respond with the bare value in %.

Study these solved cases before continuing.
Molecule	viability / %
CC(C)(C)OC(=O)N1CCCC1C(=O)NC(Cc1ccccc1)C(=O)O (stereo not drawn) (Boc-Pro-Phe-OH; configuration not given here)	104
CCOc1ccc(C(=O)N2CCN(c3ccccc3)CC2)cc1OCC	83.5

Request: Returns the measured viability for the input molecule. Input: COc1ccc(OCC(=O)Nc2cccc3ncccc23)cc1
Result: 91.4

Request: Returns the measured viability for the input molecule. Input: Cc1cc(Nc2ccccc2)n(CCC#N)n1
Result: 102

Request: Returns the measured viability for the input molecule. Input: O=C1N=C(N2CCOCC2)CS1
Result: 104

----------
Measured viability increase values are reported for all entries that follow.
Method description: viability gain of MRP-1-high H69AR cells under doxorubicin, pilot screen, MRP-1 activator project, CellTiter-Glo, duplicate (AID 807);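 further: compound pretreatment 18-22 h then 72 h combined with doxorubicin; 0% = doxorubicin alone and 100% = vehicle without doxorubicin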
Condition label: H69AR viability with doxorubicin, CellTiter-Glo luminescence; at 10 µM; active compounds read high
Respond with the bare value in %.

Study these solved cases before continuing.
Compound	Value units	Assay value
O=C(Nc1nc(-c2ccccn2)cs1)C1COc2ccccc2O1 (configuration not stated)	%	-0.68
O=C(O)c1ccc(N2CCCCCC2)c(N2C(=O)c3ccccc3C2=O)c1	%	-0.78
CCOc1ccc(-c2cc(CCCC(=O)Nc3cccc(OC)c3)no2)cc1	%	-5.12
Cc1ccc2nc(NC(=O)c3cccs3)sc2c1	%	-4.54
COc1cc2[nH]c(=O)n(CCCCCC(=O)N3CCN(c4ccccc4)CC3)c(=O)c2cc1OC	%	-4.46

Request: Returns the measured viability increase for the input compound. Input: Cc1c(NC(=O)Oc2ccccc2)sc(=S)n1C
Result: -3.22

Request: Returns the measured viability increase for the input compound. Input: CCCCNC(=O)CS(=O)Cc1nc(-c2cccs2)oc1C (configuration not stated)
Result: -0.37

Request: Returns the measured viability increase for the input compound. Input: Cn1cccc1Cc1nnc(SCC(=O)NC2CCCC2)n1CCc1ccccc1
Result: -0.59

Request: Returns the measured viability increase for the input compound. Input: O=C(c1cc(-c2cccs2)on1)N1CCCc2ccccc21
Result: -3.09

Request: Returns the measured viability increase for the input compound. Input: CC1CCCCN1c1nnc(NC(=O)Cn2c(=O)oc3ccccc32)s1 (configuration not stated)
Result: -1.54

Request: Returns the measured viability increase for the input compound. Input: CCCn1cc(S(=O)(=O)CC(=O)Nc2ccc(OCC)cc2)c2ccccc21
Result: -4.37

Request: Returns the measured viability increase for the input compound. Input: COC(=O)c1cn(NC(=O)c2ccncc2)c(=O)c2ccccc12
Result: -1.43

Request: Returns the measured viability increase for the input compound. Input: Cc1ccc(C2CC(c3ccco3)n3nc(N)nc3N2)cc1 (configuration not stated)
Result: -1.44

Request: Returns the measured viability increase for the input compound. Input: CCN1CCN(C(=O)C2CCN(S(=O)(=O)c3cccc4cccnc34)CC2)CC1
Result: -0.43

Request: Returns the measured viability increase for the input compound. Input: Nc1c(S(=O)(=O)c2ccccc2)c2nc3ccccc3nc2n1Cc1ccco1
Result: -3.97

Request: Returns the measured viability increase for the input compound. Input: COc1nc(NC(C)(C)C)nc(Oc2ccc(=O)n(C)n2)n1
Result: 0.23

Request: Returns the measured viability increase for the input compound. Input: Cc1cc(C(=O)N2CCN(C(c3ccccc3)c3ccccc3)CC2)on1
Result: 0.42

Request: Returns the measured viability increase for the input compound. Input: Cc1nc2sc(C(c3cccs3)N3CCN(c4cccc(Cl)c4)CC3)c(O)n2n1 (configuration not stated)
Result: 2.07

Request: Returns the measured viability increase for the input compound. Input: CCOC(=O)COc1cccc2c(=O)n(CC(=O)NCc3ccc4c(c3)OCO4)ccc12
Result: -5.67

Request: Returns the measured viability increase for the input compound. Input: COc1ccc(NC(=O)CSc2nnc(Cn3c(=O)sc4ccccc43)n2C)c(OC)c1
Result: -4.82

Request: Returns the measured viability increase for the input compound. Input: COC(=O)c1c(C)oc2cc(Br)c(OCC(=O)C(C)(C)C)cc12
Result: -2.86

Request: Returns the measured viability increase for the input compound. Input: CNC(=O)c1ccc(-c2sc3nc(N4CCOCC4)c4c(c3c2N)CCCC4)o1
Result: -7.88

----------
Method description: reversal of MRP1-mediated doxorubicin resistance, pilot screen, H69AR cells, doxorubicin co-treatment (AID 601)
Condition label: H69AR cells + 2 uM doxorubicin, CellTiter-Glo, 72 h; at 10 µM; active compounds read high
Measurement name: differential viability (reversal) (%)
Respond with the bare value in %.

Request: Returns the measured differential viability (reversal) for the input molecule. Input: Nc1cc(CN2C(=O)c3ccccc3C2=O)cc(Cl)c1O
Result: 29

Request: Returns the measured differential viability (reversal) for the input molecule. Input: COC(=O)COc1nc(C)c(Br)c(OC)n1
Result: 25.9

Request: Returns the measured differential viability (reversal) for the input molecule. Input: Cc1ccc(-c2nnn(CC(=O)N(CC(=O)NC3CCCCC3)c3cnc4ccccc4c3)n2)o1
Result: 15.9

Request: Returns the measured differential viability (reversal) for the input molecule. Input: CCCC(=O)Nc1ccc(OCC(O)CNC(C)C)c(C(C)=O)c1 (stereo not drawn)
Result: -0.95

Request: Returns the measured differential viability (reversal) for the input molecule. Input: CCC(C)(C(=O)NC1CCCCC1)N(Cc1ccco1)C(=O)c1ccc2c(c1)OCO2 (stereo not drawn)
Result: 3.06

Request: Returns the measured differential viability (reversal) for the input molecule. Input: Cc1ccc(C(=O)OCC(=O)c2ccc(Cl)s2)s1
Result: 6.55

Request: Returns the measured differential viability (reversal) for the input molecule. Input: Cc1nc2sc(C(c3cccc(F)c3)N3CCOCC3)c(O)n2n1 (stereo not drawn)
Result: 7.72

Request: Returns the measured differential viability (reversal) for the input molecule. Input: CCOC(=O)c1c(C)oc2ccc(OCC(N)=O)cc12
Result: 1.68

----------
Method description: SK-BR-3 cell growth inhibitors, pilot screen, 24 h, human (AID 572);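 further: compound exposure lasted between 18 and 24 h rather than exactly 24 h; 100% = carrier-treated control wells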
Condition label: SK-BR-3 viability, CellTiter-Glo luminescence, at 10 µM, active compounds read low
Measurement name: viability (%)
Respond with the bare value in %.

Molecule	Assay value
CCOC(=O)c1ccc(NC2OC(=O)c3ccccc32)cc1 (stereo not given)	106
N#CCCNCC1(c2ccccc2)CCCC1	96
C[C@H]1C[C@@H]2[C@H]([C@@H](O)C[C@@]3(C)[C@H]2CC[C@]3(O)C(=O)CO)[C@@]2(C)C=CC(=O)C=C12	115
CCOc1ccc(C(=O)N2CCN(c3ccccc3)CC2)cc1OCC	104
O=[n+]1c2c(n([O-])c3cc(F)c(N4CCCC4)cc31)CCC2	101
Cc1cc(=O)n(C)c(=O)n1CCCNc1ccccc1	82

Request: Returns the measured viability for the input molecule. Input: COc1ccccc1C(=O)N1CCN=C1SCc1cccnc1
Result: 102

----------
Method description: OD615 S. cerevisiae growth inhibition, permissive medium, pilot counter-assay, permissive growth control for S. cerevisiae lifespan shortening project (AID 705)
Condition label: OD615, 24 h, at 10 µM, active compounds read high
Measurement name: growth inhibition (%)
Respond with the bare value in %.

Study these solved cases before continuing.
Compound	Assay value
CS(=O)(=O)N(CC(=O)N1CCN(c2ccccc2F)CC1)c1cc(C(F)(F)F)ccc1Cl	1.93
O=C1C2CCCN2C(c2ccccc2F)N1c1cccc(Cl)c1 (stereo unspecified)	1.87
O=C(Cn1cc2c(n1)CCCCC2)NCc1cccs1	0.86
CCOC(=O)Nc1cc(C)c(Cl)cc1OC	-8.55
CCn1cc(S(=O)(=O)CC(=O)Nc2ccc(C)cc2)c2ccccc21	0.74

Request: Returns the measured growth inhibition for the input compound. Input: CCOC(=O)c1c(NC(=O)C2CCCN2S(=O)(=O)c2cccc3nsnc23)sc(C)c1C (stereo unspecified)
Result: -7.06

Request: Returns the measured growth inhibition for the input compound. Input: S=C(Nc1ccccn1)c1ccccn1
Result: 7.06

Request: Returns the measured growth inhibition for the input compound. Input: COc1ccc(Cl)cc1Nc1nc(N2CCCC2)nc(N2CCCC2)n1
Result: 2.74

Request: Returns the measured growth inhibition for the input compound. Input: CN(c1ccccc1)S(=O)(=O)c1ccc(C(=O)Nc2nccs2)cc1
Result: -17.4

Request: Returns the measured growth inhibition for the input compound. Input: CC(=O)Nc1ccc(-c2cc(NC(C)=O)n(-c3ccccc3)n2)cc1
Result: 2.46

Request: Returns the measured growth inhibition for the input compound. Input: O=S(=O)(c1cccc(-c2nnc(-c3cccnc3)o2)c1)N1CCCCC1
Result: 1.58
